# key: entry, value: Log DR
Target: T1, human corticotrophin releasing hormone receptor type 2 (CRHR2) (human, UniProt Q13324 1-411)
T1 sequence (looked up): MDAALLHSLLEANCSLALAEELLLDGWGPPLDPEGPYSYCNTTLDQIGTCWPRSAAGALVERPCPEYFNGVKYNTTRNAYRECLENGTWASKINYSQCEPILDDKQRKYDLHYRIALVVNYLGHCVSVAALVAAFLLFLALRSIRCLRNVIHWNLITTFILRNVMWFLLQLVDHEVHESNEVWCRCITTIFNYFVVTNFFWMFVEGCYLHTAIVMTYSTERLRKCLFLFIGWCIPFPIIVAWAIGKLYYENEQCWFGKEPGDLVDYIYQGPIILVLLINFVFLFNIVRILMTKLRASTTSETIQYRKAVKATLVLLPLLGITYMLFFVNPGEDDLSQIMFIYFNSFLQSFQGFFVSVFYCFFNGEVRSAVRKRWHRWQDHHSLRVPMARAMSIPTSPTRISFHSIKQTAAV
Test: cell-based or functional assay
Where no end group is shown, it is not given here.

Please review the entries below; each comes with its answer.
TKFTLSLDVPTNIMCLLFNIAKAKNLRAQAAANAHLMAQI-NH2 [Cys-variant stresscopin-like peptide SEQ ID NO: 16]	0.76 log10
TKFTLSLDVPCNIMNLLFNIAKAKNLRAQAAANAHLMAQI (NES-PEG (about 20 kDa) on Cys 11; C-terminal amide (-NH2)) [Pegylated Cys-variant stresscopin-like peptide with NES linker and PEG about 20 kDa SEQ ID NO: 65]	~2.75 log10
TKFTLSLDVPTNIMNLLFNIAKAKNLRAQAAANAHLMACI (NES-PEG (about 20 kDa) on Cys 39; C-terminal amide (-NH2)) [Pegylated Cys-variant stresscopin-like peptide with NES linker and PEG about 20 kDa SEQ ID NO: 93]	1.47 log10
TKCTLSLDVPTNIMNLLFNIAKAKNLRAQAAANAHLMAQI-NH2 [Cys-variant stresscopin-like peptide SEQ ID NO: 4]	1.03 log10
TKFTLSLDVPTNIMNLLFNCAKAKNLRAQAAANAHLMAQI (NES-PEG (about 20 kDa) on Cys 20; C-terminal amide (-NH2)) [Pegylated Cys-variant stresscopin-like peptide with NES linker and PEG about 20 kDa SEQ ID NO: 74]	~2.28 log10
TKFTLSLDVPTNIMNLLFNICKAKNLRAQAAANAHLMAQI-NH2 [Cys-variant stresscopin-like peptide SEQ ID NO: 22]	0.52 log10

So what does the record say about Log DR for TKFTLSLDVPTNIMNLLFNIAKAKNLRCQAAANAHLMAQI-NH2 [Cys-variant stresscopin-like peptide SEQ ID NO: 29] ?
0 log10

May I ask what Log DR has been recorded for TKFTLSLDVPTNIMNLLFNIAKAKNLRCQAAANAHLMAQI (NES-PEG MW80000 & BRANCHED on Cys 28; C-terminal amide (-NH2)) [Pegylated Cys-variant stresscopin-like peptide, NES-PEG MW80000 & BRANCHED, SEQ ID NO: 101] ?
1.9 log10

Find the recorded Log DR belonging to TKFTLSLDVPTNIMNLLFNIAKAKCLRAQAAANAHLMAQI (NES-PEG (about 20 kDa) on Cys 25; C-terminal amide (-NH2)) [Pegylated Cys-variant stresscopin-like peptide with NES linker and PEG about 20 kDa SEQ ID NO: 79] and report it.
1.11 log10

So what does the record say about Log DR for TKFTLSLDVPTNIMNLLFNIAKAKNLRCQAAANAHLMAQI (NES-PEG MW30000 on Cys 28; C-terminal amide (-NH2)) [Pegylated Cys-variant stresscopin-like peptide, NES-PEG MW30000, SEQ ID NO: 99] ?
0.8 log10

Form field: reported Log DR of TKFTLSLDVPTNIMNLLFNIACAKNLRAQAAANAHLMAQI-NH2 [Cys-variant stresscopin-like peptide SEQ ID NO: 23]
1.13 log10

Any idea what its Log DR is? The binder is TKFTLSLDVPTNIMNLLCNIAKAKNLRAQAAANAHLMAQI-NH2 [Cys-variant stresscopin-like peptide SEQ ID NO: 19]
1.67 log10
